Assay: Cmax in mouse at 25 mg/kg, po
Type: ADME, organism-based
Design: dose 25 mg/kg, route oral
Details: in vivo
measurementLabel: Cmax

Looking up Cn1cncc1[C@@](C)(O)C1=Cc2cccnc2[C@@H](N2CCN(C(=O)OC(C)(C)C)CC2)c2ccc(Cl)cc21 , I see its Cmax listed as 18 µM

* * *

Experiment: Cmax in rat at 10 mg/kg, po
Assay type: ADME, organism-based
Design: dose 10 mg/kg, route oral
Conditions: in vivo
measurementLabel: Cmax (nM)
Numbers only, in nM.

Measured Cmax of Cn1cncc1[C@@](C)(O)C1=Cc2cccnc2[C@@H](N2CCN(C(=O)OC(C)(C)C)CC2)c2ccc(Cl)cc21 : 1500
